# EXPERIMENTAL TARGET: Steryl-sulfatase (Homo sapiens) (UniProt P08842)
# Sequence (P08842 whole entry): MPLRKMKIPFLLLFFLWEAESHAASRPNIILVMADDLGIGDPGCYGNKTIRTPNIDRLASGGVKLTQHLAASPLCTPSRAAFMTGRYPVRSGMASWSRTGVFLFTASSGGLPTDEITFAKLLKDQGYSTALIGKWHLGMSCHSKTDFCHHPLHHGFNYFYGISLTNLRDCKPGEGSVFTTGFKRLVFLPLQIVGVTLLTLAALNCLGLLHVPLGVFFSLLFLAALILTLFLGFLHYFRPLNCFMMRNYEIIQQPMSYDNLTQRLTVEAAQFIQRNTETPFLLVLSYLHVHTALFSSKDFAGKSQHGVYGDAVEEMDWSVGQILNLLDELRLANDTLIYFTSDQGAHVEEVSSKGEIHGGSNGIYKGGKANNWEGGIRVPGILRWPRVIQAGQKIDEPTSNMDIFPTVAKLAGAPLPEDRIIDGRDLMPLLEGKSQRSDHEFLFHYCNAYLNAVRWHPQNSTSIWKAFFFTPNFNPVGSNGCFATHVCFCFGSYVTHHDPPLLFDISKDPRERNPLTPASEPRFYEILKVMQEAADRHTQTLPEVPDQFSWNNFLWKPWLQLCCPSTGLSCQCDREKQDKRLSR
# PROTOCOL DESCRIPTION: Inhibition of STS (unknown origin) expressed in HEK-293 cells assessed as transformation of [3H]-E1S into E1 at 0.1 uM by […]
# Format: cell-based
# RECORDED CONDITIONS: HEK293
satisfied means recorded inhibition is 20% or above; not satisfied means it is below 20%.

Examples from the recorded data:
(Q) Does inhibition meet or surpass 20% for "CCN(Cc1ccc(Br)cc1)c1ccc(C(=O)N2CCc3ccc(OS(N)(=O)=O)cc3C2)cc1" ?
(A) satisfied

(Q) Does inhibition meet or surpass 20% for "NS(=O)(=O)Oc1ccc2c(c1)CN(C(=O)c1cccc(N3CCN(Cc4ccccc4)CC3)c1)CC2" ?
(A) not satisfied

(Q) Does inhibition meet or surpass 20% for "CCN(Cc1cccnc1)c1ccc(C(=O)N2CCc3ccc(OS(N)(=O)=O)cc3C2)cc1" ?
(A) satisfied

(Q) Does inhibition meet or surpass 20% for "NS(=O)(=O)Oc1ccc2c(c1)CN(C(=O)c1ccc(N3CCC(N4CCCCC4)CC3)cc1)CC2" ?
(A) not satisfied

(Q) Does inhibition meet or surpass 20% for "CCN(Cc1ccc(Br)cc1)c1cccc(C(=O)N2CCc3ccc(OS(N)(=O)=O)cc3C2)c1" ?
(A) satisfied

Further cases:
(Q) Does inhibition meet or surpass 20% for "CCCN(Cc1ccccc1)c1cccc(C(=O)N2CCc3ccc(OS(N)(=O)=O)cc3C2)c1" ?
(A) satisfied

(Q) Does inhibition meet or surpass 20% for "CN1CCN(c2cccc(C(=O)N3CCc4ccc(OS(N)(=O)=O)cc4C3)c2)CC1" ?
(A) not satisfied

(Q) Does inhibition meet or surpass 20% for "CN(C)CCCN(Cc1ccccc1)c1ccc(C(=O)N2CCc3ccc(OS(N)(=O)=O)cc3C2)cc1" ?
(A) not satisfied

(Q) Does inhibition meet or surpass 20% for "CCN(Cc1ccccc1)c1ccc(C(=O)N2CCc3ccc(OS(N)(=O)=O)cc3C2)cc1" ?
(A) satisfied

(Q) Does inhibition meet or surpass 20% for "NS(=O)(=O)Oc1ccc2c(c1)CN(C(=O)c1ccc(N3CCN(c4ncccn4)CC3)cc1)CC2" ?
(A) not satisfied
